Overview of reported IC50 across a group of molecules:
Tested on: IL-21
assay: Human TH17 cytokine inhibition measured by ELISA: IL-21
Assay type: cell-based
assay-setup: 72 h; human CD4+ T cells under TH17-polarizing conditions, 3 days; supernatant ELISA

Please review the entries below; each comes with its answer.
[[record]]
molecule = "C[C@@H]1C[C@H](Cn2ccc3cc(-c4cn[nH]c4)ccc32)CN1S(=O)(=O)c1ccccc1 (racemic) [Example 47]"
property_name = "IC50"
experimental_value = "< 10 µM"

[[record]]
molecule = "O=S(=O)(CC(F)(F)F)N1CCC(Cn2ccc3cc(-c4cn[nH]c4)ccc32)CC1 [Example 8]"
property_name = "IC50"
experimental_value = "> 10 µM"


Now look at this one.
Given item O=S(=O)(c1ccc(Cl)cc1)N1CCC(Cn2ccc3cc(-c4cn[nH]c4)ccc32)CC1 [Example 36] , the value recorded as its IC50 is < 10 µM

* * *

Tested on: IL-21
assay: Human TH17 cytokine inhibition measured by ELISA: IL-21
Format: cell-based
assay-setup: 72 h; human CD4+ T cells under TH17-polarizing conditions, 3 days; supernatant ELISA
Experimental: Human TH17 Cytokine Inhibition as Measured by ELISA Peripheral blood mononuclear cells (PBMCs) were sourced from freshly prepared leukocyte enriched plasma (buffy coat) from healthy donors (New York Blood Center). […] Supernatants were collected and stored at −20° C. until assayed for IL-17A, IL-17F and IL-21 levels by “Ready-Set-Go” ELISA kits (eBioscience) as per manufacturer's instructions. Endpoint absorbance was read at 450 nm using a microplate reader (Perkin Elmer).
property-name: IC50

// known answers, use as guide
[[record]]
compound = "CC1(C)CC(Cn2ccc3cc(-c4cn[nH]c4)ccc32)CN1S(=O)(=O)c1ccccc1 (centres unmarked) [Example 29]"
experimental_value = "< 10 µM"

[[record]]
compound = "O=S(=O)(CCc1ccccc1)N1CCC(Cn2ccc3cc(-c4cn[nH]c4)ccc32)CC1 [Example 7]"
experimental_value = "< 10 µM"

[[record]]
compound = "O=S(=O)(c1cccnc1)N1CCC(Cn2ccc3cc(-c4cn[nH]c4)ccc32)CC1 [Example 38]"
experimental_value = "< 10 µM"

[[record]]
compound = "CS(=O)(=O)N1CCC(Cn2ccc3cc(-c4cn[nH]c4)ccc32)CC1 [Example 50]"
experimental_value = "> 10 µM"

[[record]]
compound = "O=S(=O)(Cc1ccccc1)N1CCC(Cn2ccc3cc(-c4cn[nH]c4)ccc32)CC1 [Example 6]"
experimental_value = "> 10 µM"


Reported IC50 of C[C@H]1C[C@H](Cn2ccc3cc(-c4cn[nH]c4)ccc32)CN1S(=O)(=O)c1ccccc1 (racemic) [Example 48] : < 10 µM

get_value(item= O=S(=O)(c1ccccc1F)N1CCC(Cn2ccc3cc(-c4cn[nH]c4)ccc32)CC1 [Example 40] , readout=IC50) returns < 10 µM

# IC50 (compound: O=S(=O)(c1ccccc1)N1CCC(Cn2ccc3cc(-c4cn[nH]c4)ccc32)CC1 [Example 5] ) is < 10 µM
